# key: entry, value: Maximum mean fluorescence intensity
- tested system: T1, human CD19 on CHO-K1-human CD19 cells (human, UniProt P15391 20-556)
- T1 construct: whole, on cells; also called CHO-K1-human CD19-2C8
- T1 sequence (looked up): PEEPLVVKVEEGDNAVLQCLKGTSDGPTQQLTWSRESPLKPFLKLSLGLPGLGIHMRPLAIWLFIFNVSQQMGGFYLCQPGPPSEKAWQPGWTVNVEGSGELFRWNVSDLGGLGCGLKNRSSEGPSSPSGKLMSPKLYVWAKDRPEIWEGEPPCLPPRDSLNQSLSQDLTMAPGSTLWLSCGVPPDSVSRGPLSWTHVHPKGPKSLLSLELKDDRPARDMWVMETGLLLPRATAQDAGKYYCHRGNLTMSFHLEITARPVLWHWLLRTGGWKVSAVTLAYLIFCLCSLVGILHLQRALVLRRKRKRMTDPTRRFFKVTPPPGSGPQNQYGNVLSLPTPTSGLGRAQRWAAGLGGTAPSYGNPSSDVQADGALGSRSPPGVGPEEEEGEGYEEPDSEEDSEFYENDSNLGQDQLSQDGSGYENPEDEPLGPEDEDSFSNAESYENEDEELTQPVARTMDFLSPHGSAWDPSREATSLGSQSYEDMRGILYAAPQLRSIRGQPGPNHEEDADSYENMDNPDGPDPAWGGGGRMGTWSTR
- assay: FACS on CHO-K1-human CD19 cells
Reply briefly: the number, and no unit.

| binder | Maximum mean fluorescence intensity |
| --- | --- |
| F6.5.20 (antibody, human IgG1, V domains shown, human-murine chimeric antibody, human IgG1) VH: QVQLQQPGAELVKPGASVKLSCKASGYTFTSYWMQWVKQRPGQGLEWIGEIDPSDSYTNYNQKFKGKASLTVDTSSSTAYMQLSSLTSEDSAVYYCARWGLLRNYYVMDYWGQGTSVTVSS VL: EIVLTQSPTTMAASPGEKITITCSASSSISSNYLHWYQQKPGFSPKLLIYRTSNLASGVPARFSGSGSGTSYSLTIGTMEAEDVATYYCQQGSSIPRMLTFGAGTKLELK | 48300 |

Now turn to the next binder.
Query: Look up Maximum mean fluorescence intensity for this binder: F2.15.26 (antibody, human IgG1, V domains shown, human-murine chimeric antibody, human IgG1) VH: QVQLKESGPGLVAPSQSLSITCTVSGFSLTDYGVSWIRQSPGKGLEWLGVIWGSGDTYYNSVLESRLSINKDNSKNQVFLKMNSLQTDDAAMYFCAKHSYYGGSFAMDYWGQGTSVTVSS VL: DIQMTQTTSSLSASLGDRVTISCRASQDISNYLNWYQQKPDGTVKLLIYYTSRLHSGVPSRFSGSGSGTDYSLTISNLEQEDIATYFCQQGKTLPWTFGGGTKLEIK
Result: 60400
